Hello, the source for this data is PubChem BioAssay AID256, in case you need it.

Tested on: CD2F1 mice, L1210 leukemia ip, survival T/C
assay_overview: NCI In Vivo Anticancer Drug Screen. Data for tumor model L1210 Leukemia (intraperitoneal) in CD2F1 (CDF1) mice
condition_info: endpoint: mean survival time; dose: 100.0 mg/kg/injection; schedule: Q01DX009 (ip); vehicle: saline
Inconclusive results and toxic doses are left out. Rule for the calls: active = survival T/C of 150% or more; inactive = T/C below 125% in these data.
Pick from label 1 = active, label 0 = inactive when you respond.

The examples below pair each entry with its known result.
input: For this compound, state the assay outcome: NC(CCC(=O)c1ccccn1)C(=O)O (centres undefined)
output: label 0

input: Same read-out for CC1CN(c2ccccc2)NC1=O (centres undefined) ?
output: label 0

input: Same read-out for `CN(C)N=Nc1ccc(C(=O)O)cc1` ?
output: label 1

input: Same read-out for `CN(C)C(=O)c1cc[n+](Cc2ccc(Cl)c(Cl)c2)cc1` ?
output: label 0

input: Same read-out for `CCS(=O)(=O)/C=C(\C#Cc1ccccc1)c1ccccc1` ?
output: label 0

input: Same read-out for `C[N+](C)(C)CCO` ?
output: label 0

input: Same read-out for `N=C(N)SCCSC(=N)N` ?
output: label 0

input: Same read-out for O=CNC(Cc1ccc(O)cc1)C(=O)O (centres undefined) ?
output: label 0

Further cases:
input: For this compound, state the assay outcome: CN1CCCC(OC(=O)N(C)C)C1 (centres undefined)
output: label 0

input: Same read-out for NC(=O)C(c1ccccc1)N1CCOCC1 (centres undefined) ?
output: label 0

input: Same read-out for `O=C(O)/C=C/c1ccccc1C(=O)O` ?
output: label 0

input: Same read-out for CN1C2CCC1C(CCl)C(O)C2 (centres undefined) ?
output: label 0

input: Same read-out for CCc1c2cc(OC)c(OC)cc2cc2c3cc(OC)c(OC)cc3cc[n+]12 (tested in a mixture with another compound) ?
output: label 0

input: Same read-out for C1CN(P2(N3CC3)=NP(N3CC3)(N3CC3)=NP(N3CC3)(N3CC3)=N2)CCO1 (centres undefined) ?
output: label 0

input: Same read-out for CCCN1COC(OCC)C(C)(C)C1 (centres undefined) ?
output: label 0

input: Same read-out for `Cc1cc(N)c(O)cc1C` ?
output: label 0

input: Same read-out for CC(=O)OC1C(O)C(O)C(OC(C)=O)C(OC(C)=O)C1OC(C)=O (centres undefined) ?
output: label 0
